targetUnderTest: Amyloid-beta precursor protein (Homo sapiens)
methodSummary: Inhibition of amyloid beta (unknown origin) aggregation at 10 uM incubated for 5 mins by thioflavin fluorescent based analysis relative to control
quantityMeasured: inhibition (%)
Dear colleague, please return just the value in %, with no unit written.

The following molecules have reported results that may help.
>  <molecule>
O=C(CC1c2ccccc2-c2ccccc21)NCC(O)CNCC1CCCCCC1 (racemic)

>  <inhibition (%)>
4.6

$$$$
>  <molecule>
O=C(NCC(O)CNCC1CCCCC1)C1c2ccccc2-c2ccccc21 (racemic)

>  <inhibition (%)>
4.6

$$$$
>  <molecule>
CC(C)(C)CNCC(O)CNC(=O)CC1c2ccccc2-c2ccccc21 (racemic)

>  <inhibition (%)>
4.6

$$$$
>  <molecule>
O=C(NCC(O)CNCC1CCCC1)C1c2ccccc2-c2ccccc21 (racemic)

>  <inhibition (%)>
4.6

$$$$

// below: inhibition requested for another molecule
Lab note: O=C(CC(c1ccccc1)c1ccccc1)NCC(O)CNCC1CCCCC1 (stereo not given) gave inhibition of 4.6

----------
methodSummary: Lipophilicity, logD of compound at pH 7.4
Type: physicochemical
assayConditions: buffer
Examples of compounds with documented logD follow.
Give the figure only, with no unit attached.

>  <compound>
O=C(NCC(O)CNCC1CCCCCC1)C1c2ccccc2-c2ccccc21 (racemic)

>  <logD>
1.36

$$$$
>  <compound>
O=C(CC(c1ccccc1)c1ccccc1)NCC(O)CNCC1CCCCC1 (centres undefined)

>  <logD>
1.43

$$$$
>  <compound>
O=C(NCC(O)CNC1CCCCC1)C1c2ccccc2-c2ccccc21 (racemic)

>  <logD>
0.6

$$$$
>  <compound>
CC(C)(C)CNCC(O)CNC(=O)CC1c2ccccc2-c2ccccc21 (racemic)

>  <logD>
0.73

$$$$
>  <compound>
O=C(NCC(O)CNCC(F)(F)F)C1c2ccccc2-c2ccccc21 (racemic)

>  <logD>
2.33

$$$$
>  <compound>
O=C(CC1c2ccccc2-c2ccccc21)NCC(O)CNCC1CCCC1 (racemic)

>  <logD>
0.66

$$$$
>  <compound>
O=C(CC1c2ccccc2-c2ccccc21)NCC(O)CNCCC1CCCCC1 (racemic)

>  <logD>
1.6

$$$$
>  <compound>
O=C(NCC(O)CNCc1ccccc1)C1c2ccccc2-c2ccccc21 (racemic)

>  <logD>
1.78

$$$$
>  <compound>
O=C(CC1c2ccccc2-c2ccccc21)NCC(O)CNCC1CCCCCC1 (racemic)

>  <logD>
1.55

$$$$
>  <compound>
O=C(NCC(O)CNCC1CCCCC1)C1c2ccccc2-c2ccccc21 (racemic)

>  <logD>
0.91

$$$$

Lab note: O=C(CC1c2ccccc2-c2ccccc21)NCC(O)CNC1CCCCC1 (racemic) gave logD of 0.79

Lab note: CC(C)(C)CNCC(O)CNC(=O)C1c2ccccc2-c2ccccc21 (racemic) gave logD of 0.54

----------
targetUnderTest: Cholinesterase (Equus caballus, UniProt P81908)
Sequence (P81908 whole entry): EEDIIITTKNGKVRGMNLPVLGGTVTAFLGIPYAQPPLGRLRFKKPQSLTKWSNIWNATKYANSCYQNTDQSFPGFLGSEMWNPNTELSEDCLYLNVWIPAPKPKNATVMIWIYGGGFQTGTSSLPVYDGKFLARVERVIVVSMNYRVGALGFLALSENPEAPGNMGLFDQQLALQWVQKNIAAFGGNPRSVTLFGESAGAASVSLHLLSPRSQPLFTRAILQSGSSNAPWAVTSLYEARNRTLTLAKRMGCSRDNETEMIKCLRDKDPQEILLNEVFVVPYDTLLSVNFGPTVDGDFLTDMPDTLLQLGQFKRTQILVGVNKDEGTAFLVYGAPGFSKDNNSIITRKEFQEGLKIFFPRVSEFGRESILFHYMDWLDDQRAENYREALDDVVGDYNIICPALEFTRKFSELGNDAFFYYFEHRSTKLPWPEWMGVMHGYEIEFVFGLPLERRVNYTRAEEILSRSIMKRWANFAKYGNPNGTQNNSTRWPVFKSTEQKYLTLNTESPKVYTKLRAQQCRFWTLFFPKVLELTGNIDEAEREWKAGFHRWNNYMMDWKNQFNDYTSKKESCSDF
methodSummary: Inhibition of equine serum BuChE by Ellman's method
quantityMeasured: pIC50
Scale: negative log10 of molar concentration, which is what pIC50 denotes.

The following molecules have reported results that may help.
>  <molecule>
O=C(NCC(O)CNCCC1CCCCC1)C1c2ccccc2-c2ccccc21 (racemic)

>  <targetUnderTest>
Cholinesterase (Equus caballus, UniProt P81908)

>  <reportedResult>
6.32

$$$$
>  <molecule>
O=C(NCC(O)CNCC1CCCCC1)C1c2ccccc2-c2ccccc21 (racemic)

>  <targetUnderTest>
Cholinesterase (Equus caballus, UniProt P81908)

>  <reportedResult>
6.64

$$$$
>  <molecule>
O=C(CC1c2ccccc2-c2ccccc21)NCC(O)CNCCC1CCCCC1 (racemic)

>  <targetUnderTest>
Cholinesterase (Equus caballus, UniProt P81908)

>  <reportedResult>
6.37

$$$$
>  <molecule>
O=C(NCC(O)CNCc1ccccc1)C1c2ccccc2-c2ccccc21 (racemic)

>  <targetUnderTest>
Cholinesterase (Equus caballus, UniProt P81908)

>  <reportedResult>
6.20

$$$$
>  <molecule>
O=C(NCC(O)CNCC1CCCCCC1)C1c2ccccc2-c2ccccc21 (racemic)

>  <targetUnderTest>
Cholinesterase (Equus caballus, UniProt P81908)

>  <reportedResult>
7.42

$$$$

Given the molecule O=C(NCC(O)CNCC1CCCC1)C1c2ccccc2-c2ccccc21 (racemic) and test system Cholinesterase (Equus caballus, UniProt P81908), the measured pIC50 is 6.42

Given the molecule O=C(NCC(O)CNCC(F)(F)F)C1c2ccccc2-c2ccccc21 (racemic) and test system Cholinesterase (Equus caballus, UniProt P81908), the measured pIC50 is 4.89

Given the molecule O=C(CC1c2ccccc2-c2ccccc21)NCC(O)CNCC1CCCCC1 (racemic) and test system Cholinesterase (Equus caballus, UniProt P81908), the measured pIC50 is 5.77

Given the molecule CC(C)(C)CNCC(O)CNC(=O)CC1c2ccccc2-c2ccccc21 (racemic) and test system Cholinesterase (Equus caballus, UniProt P81908), the measured pIC50 is 6.17

Given the molecule CC(C)(C)CNCC(O)CNC(=O)C1c2ccccc2-c2ccccc21 (racemic) and test system Cholinesterase (Equus caballus, UniProt P81908), the measured pIC50 is 6.41

Given the molecule O=C(NCC(O)CNCC1CC1)C1c2ccccc2-c2ccccc21 (racemic) and test system Cholinesterase (Equus caballus, UniProt P81908), the measured pIC50 is 6.36

Given the molecule "O=C(NC[C@@H](O)CNCC1CCCCCC1)C1c2ccccc2-c2ccccc21" and test system Cholinesterase (Equus caballus, UniProt P81908), the measured pIC50 is 7.51

Given the molecule O=C(CC1c2ccccc2-c2ccccc21)NCC(O)CNCC1CCCCCC1 (racemic) and test system Cholinesterase (Equus caballus, UniProt P81908), the measured pIC50 is 5.96

Given the molecule O=C(CC(c1ccccc1)c1ccccc1)NCC(O)CNCC1CCCCC1 (centres undefined) and test system Cholinesterase (Equus caballus, UniProt P81908), the measured pIC50 is 7.11

Given the molecule O=C(NCC(O)CNC1CCCCC1)C1c2ccccc2-c2ccccc21 (racemic) and test system Cholinesterase (Equus caballus, UniProt P81908), the measured pIC50 is 6.47

Given the molecule "O=C(NC[C@H](O)CNCC1CCCCCC1)C1c2ccccc2-c2ccccc21" and test system Cholinesterase (Equus caballus, UniProt P81908), the measured pIC50 is 6.54

Given the molecule O=C(CC1c2ccccc2-c2ccccc21)NCC(O)CNC1CCCCC1 (racemic) and test system Cholinesterase (Equus caballus, UniProt P81908), the measured pIC50 is 5.83

Given the molecule O=C(CC1c2ccccc2-c2ccccc21)NCC(O)CNCc1ccccc1 (racemic) and test system Cholinesterase (Equus caballus, UniProt P81908), the measured pIC50 is 5.36

Given the molecule O=C(CC1c2ccccc2-c2ccccc21)NCC(O)CNCC1CCCC1 (racemic) and test system Cholinesterase (Equus caballus, UniProt P81908), the measured pIC50 is 5.77
